Target: prolylendopeptidase (Rattus norvegicus)
Measured IC50 accompanies every entry in the list below.
Answer in nM, number only, no unit symbol.

Consider the reported IC50 for these molecules:
[[record]]
mol = "CN(C)CCCOc1ccc(Oc2ncccc2C(=O)c2cccs2)cc1"
experimental_value = 60

[[record]]
mol = "CN(C)CCCCCCSCCSc1ncccc1C(=O)c1cccs1"
experimental_value = 4.5


Could you now consider this next molecule?
Query: # lookup: IC50 of Cc1ccc(C(=O)c2cccs2)c(SCCCCCCN(C)C)n1
Response: 9.5

* * *

Parameter IC50, tested on prolylendopeptidase (Rattus norvegicus, UniProt O70196), listed per item.
Sequence (O70196 whole entry): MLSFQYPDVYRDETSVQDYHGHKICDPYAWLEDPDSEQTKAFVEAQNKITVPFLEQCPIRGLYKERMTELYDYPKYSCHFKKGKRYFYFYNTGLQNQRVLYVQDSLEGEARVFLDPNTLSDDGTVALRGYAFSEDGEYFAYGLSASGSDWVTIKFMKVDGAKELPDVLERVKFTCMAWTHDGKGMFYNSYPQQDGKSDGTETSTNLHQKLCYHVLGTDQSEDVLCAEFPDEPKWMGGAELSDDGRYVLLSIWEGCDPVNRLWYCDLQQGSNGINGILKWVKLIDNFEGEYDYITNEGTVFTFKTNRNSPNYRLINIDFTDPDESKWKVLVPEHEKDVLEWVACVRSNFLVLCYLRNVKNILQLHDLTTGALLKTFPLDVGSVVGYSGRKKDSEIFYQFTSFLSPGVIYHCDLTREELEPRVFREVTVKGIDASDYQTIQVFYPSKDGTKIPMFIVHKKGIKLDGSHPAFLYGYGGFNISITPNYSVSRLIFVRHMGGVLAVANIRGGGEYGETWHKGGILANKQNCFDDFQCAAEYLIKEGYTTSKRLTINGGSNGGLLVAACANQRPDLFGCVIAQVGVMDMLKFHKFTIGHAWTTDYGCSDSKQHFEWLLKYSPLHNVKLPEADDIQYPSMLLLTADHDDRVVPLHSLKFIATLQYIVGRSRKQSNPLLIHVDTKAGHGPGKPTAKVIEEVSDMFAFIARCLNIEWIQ
Answer in µM, number only, no unit symbol.

Query: # lookup: IC50 of CN(C)CCCCCCOc1ccc(Oc2ncccc2C(=O)c2cccs2)cc1
Response: 0.03

Query: Record: CN(C)CCCCCCSc1ncccc1C(=O)c1cccs1
Response: 0.0095

Query: Record: CN(C)CCc1ccc(Oc2ncccc2C(=O)c2cccs2)cc1
Response: 0.014

Query: Record: CC(CSCCCCCCN(C)C)Sc1ncccc1C(=O)c1cccs1 (stereo not shown)
Response: 0.0045

Query: Record: CN(CCCCCCOc1ncccc1C(=O)c1cccs1)Cc1ccccc1
Response: 0.078

Query: Record: CC(CSCCCN(C)C)Sc1ncccc1C(=O)c1cccs1 (stereo not shown)
Response: 0.0045

Query: Record: CN(C)CCCCCCOc1ncccc1C(=O)c1cccs1
Response: 0.055

* * *

Parameter IC50, tested on prolylendopeptidase (Rattus norvegicus, UniProt O70196), listed per item.
Answer in µM, number only, no unit symbol.

[[record]]
compound = "CC(C)c1ccc(C(=O)c2cccs2)c(SCCCCCCN(C)C)n1"
output_unit = "µM"
experimental_value = 0.0055

[[record]]
compound = "CN(C)CCCOc1ncccc1C(=O)c1ccc(Cl)cc1 [Known Compound, reference compound]"
output_unit = "µM"
experimental_value = 1800


Could you now consider this next compound?
Query: Query the reported IC50 for prolylendopeptidase (Rattus norvegicus, UniProt O70196); item: CCN(CC)CCCCCCSc1nc(C(C)C)ccc1C(=O)c1cccs1
Response: 0.011
